- TGT: human CYP2D6 (Homo sapiens)
- Sequence (P10635 whole entry): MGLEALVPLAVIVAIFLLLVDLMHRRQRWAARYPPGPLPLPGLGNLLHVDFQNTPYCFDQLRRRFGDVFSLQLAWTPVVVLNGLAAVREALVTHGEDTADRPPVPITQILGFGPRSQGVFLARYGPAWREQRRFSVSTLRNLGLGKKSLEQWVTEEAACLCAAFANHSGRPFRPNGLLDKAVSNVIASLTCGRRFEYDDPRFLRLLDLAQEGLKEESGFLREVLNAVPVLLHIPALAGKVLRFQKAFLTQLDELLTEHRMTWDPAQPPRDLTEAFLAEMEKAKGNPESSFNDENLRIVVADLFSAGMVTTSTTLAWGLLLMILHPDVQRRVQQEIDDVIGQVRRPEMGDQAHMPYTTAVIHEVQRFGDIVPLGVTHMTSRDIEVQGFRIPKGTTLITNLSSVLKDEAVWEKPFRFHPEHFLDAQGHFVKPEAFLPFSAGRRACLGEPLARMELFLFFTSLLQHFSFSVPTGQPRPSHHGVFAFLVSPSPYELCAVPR
Some compounds, each annotated with its measured CYP2D6 Efficacy.
PROPERTY_NAME: CYP2D6 Efficacy

COMPOUND	PROPERTY_NAME	MEASURED_RESULT
Cl.Cl.NCCNc1cccc2ccccc12	CYP2D6 Efficacy	5.04 ± 0.58 (-104 ± 5) %
COc1cc2c(cc1OC)C(C(C(=O)N(CCc1ccc(OC)c(OC)c1OC)CCc1ccc(OC)c(OC)c1OC)c1ccccc1)=NCC2.Cl (centres unmarked) [Pinokalant hydrochloride]	CYP2D6 Efficacy	9.34 ± 4.19 (-64 ± 10) %
CC(=O)OC1(c2ccccc2)CCN(CCc2ccccc2)CC1	CYP2D6 Efficacy	0.57 ± 0.14 (-105 ± 2) %
Cc1[nH]cnc1C[C@H]1CCc2c(C)c3ccccc3n2C1=O.Cl [Fabesetron hydrochloride]	CYP2D6 Efficacy	3.52 ± 0.74 (-103 ± 4) %
Cc1ccc2nc(N)[nH]c(=O)c2c1Sc1ccncc1.Cl.Cl [Nolatrexed dihydrochloride]	CYP2D6 Efficacy	14.43 ± 1.84 (-95 ± 12) %
C[C@@H]1CN(CCCn2c3ccccc3c3ccccc32)C[C@H](C)N1.Cl.Cl [Rimcazole dihydrochloride]	CYP2D6 Efficacy	0.4 ± 0.03 (-102 ± 4) %
CCC(CN)=C(c1ccccc1)c1ccccc1.Cl [Etifelmine hydrochloride]	CYP2D6 Efficacy	4.07 ± 0.52 (-106 ± 3) %
CC(C)C[C@H]1[C@@H](c2ccccc2)OC(=O)N1CCCN1CCCCCC1.Cl [Ipenoxazone hydrochloride]	CYP2D6 Efficacy	0.44 ± 0.1 (-105 ± 4) %

* * *

- TGT: human CYP1A2 (Homo sapiens)
- Sequence (P05177 1-516): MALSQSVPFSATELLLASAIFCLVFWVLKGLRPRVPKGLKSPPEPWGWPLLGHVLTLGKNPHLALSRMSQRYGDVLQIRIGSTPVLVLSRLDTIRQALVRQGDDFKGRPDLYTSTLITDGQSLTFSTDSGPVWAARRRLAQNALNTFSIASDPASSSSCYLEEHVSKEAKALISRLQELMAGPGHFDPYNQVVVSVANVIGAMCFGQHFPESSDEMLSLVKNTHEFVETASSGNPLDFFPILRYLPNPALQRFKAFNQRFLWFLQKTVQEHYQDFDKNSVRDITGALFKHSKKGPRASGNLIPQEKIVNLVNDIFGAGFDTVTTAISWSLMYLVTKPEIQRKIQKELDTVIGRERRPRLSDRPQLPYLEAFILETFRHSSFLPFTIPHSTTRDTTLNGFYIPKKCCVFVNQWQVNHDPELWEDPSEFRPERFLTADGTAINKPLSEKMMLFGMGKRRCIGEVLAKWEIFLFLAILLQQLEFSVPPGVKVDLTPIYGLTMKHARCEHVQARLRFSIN

MOLECULE	TGT	CYP1A2 Efficacy
OCC(c1ccc(Cl)cc1)c1ccc(Cl)cc1	human CYP1A2 (Homo sapiens)	34.28 ± 2.23 (-78 ± 6) %
CCCCCCCCCCCCCCCCCC[N+](C)(C)Cc1ccccc1.[Cl-]	human CYP1A2 (Homo sapiens)	80.42 ± 0 (-111 ± 16) %
Cc1ccc2nc(N)[nH]c(=O)c2c1Sc1ccncc1.Cl.Cl [Nolatrexed dihydrochloride]	human CYP1A2 (Homo sapiens)	3.33 ± 0.9 (-94 ± 12) %
CCOC(=O)c1ccc(OC(=O)CCCCCN=C(N)N)cc1.CS(=O)(=O)O [Gabexate mesilate]	human CYP1A2 (Homo sapiens)	20.14 ± 4.79 (-49 ± 20) %
Cl.Cl.NCCNc1cccc2ccccc12	human CYP1A2 (Homo sapiens)	0.57 ± 0.07 (-100 ± 5) %
CN(C)CCN(Cc1ccc(Cl)cc1)c1ccccn1.Cl [Chloropyramine hydrochloride]	human CYP1A2 (Homo sapiens)	20.13 ± 6.48 (-40 ± 3) %
Cl.FC(F)(F)c1cccc(C2=CCN(CCc3ccc4ccccc4c3)CC2)c1 [Xaliproden hydrochloride]	human CYP1A2 (Homo sapiens)	28.62 ± 14.29 (-37 ± 3) %
CCC(CN)=C(c1ccccc1)c1ccccc1.Cl [Etifelmine hydrochloride]	human CYP1A2 (Homo sapiens)	14.36 ± 3.71 (-50 ± 13) %
CCCCCCCCCCCCCCCC[N+](C)(C)Cc1ccccc1.[Cl-] [Benzylhexadecyldimethylammonium chloride]	human CYP1A2 (Homo sapiens)	75.23 ± 5.09 (-82 ± 8) %
